# run-description: inhibitors of TNFa-induced NFkB p65 translocation, primary screen, imaging, HUVEC, MLSMR starter and 10KST1 sets (AID 438);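 note: compound added about 3h40 before a 20 min TNFalpha stimulation; signal is the nuclear over cytoplasmic p65 intensity ratio per well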
# assay-conditions: HUVEC TNFa-induced p65 nuclear translocation; at 2 µM, hits give high values, 0% TNFa-plus-vehicle, 100% no-TNFa wells
reported-metric: inhibition (%)
Give just the numeric value; % need not be written.

CC(=O)Nc1cc2c(nc1C)nc(C)n2Cc1ccc(Br)cc1    -1.6
COc1ccc(NC(=O)CS(=O)CC(=O)Nc2cc(Cl)ccc2OC)cc1 (stereo not given)    10.5
COC(=O)CSc1nc2c(c(=O)n(C)c(=O)n2C)n1CCC(C)C    -7

-- ask Returns the measured inhibition for the input compound. Input: CCOc1ccc(-c2nnc(SCC(=O)N3CCN(c4ccccc4)CC3)o2)cc1
-- reply -8.6

-- ask Query (compound): OCCNCCCCOc1ccccc1F ; field requested: inhibition
-- reply -1.5
